Target: Neuronal acetylcholine receptor subunit alpha-7 (Homo sapiens, UniProt P36544)
Sequence (P36544 whole entry): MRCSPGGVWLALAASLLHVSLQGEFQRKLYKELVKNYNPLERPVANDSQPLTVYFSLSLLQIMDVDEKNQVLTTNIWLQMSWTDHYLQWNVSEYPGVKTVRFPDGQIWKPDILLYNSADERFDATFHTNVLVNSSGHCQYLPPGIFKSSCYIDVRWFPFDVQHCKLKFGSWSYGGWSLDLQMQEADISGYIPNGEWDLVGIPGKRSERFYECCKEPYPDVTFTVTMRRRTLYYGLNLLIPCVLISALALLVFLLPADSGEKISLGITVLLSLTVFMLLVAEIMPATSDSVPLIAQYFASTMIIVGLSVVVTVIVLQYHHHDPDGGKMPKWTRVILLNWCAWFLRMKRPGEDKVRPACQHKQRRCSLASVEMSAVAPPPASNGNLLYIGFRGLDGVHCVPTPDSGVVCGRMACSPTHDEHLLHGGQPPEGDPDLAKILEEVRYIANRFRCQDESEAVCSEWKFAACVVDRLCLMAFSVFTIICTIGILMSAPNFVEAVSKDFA
Assay: Positive allosteric modulation of human alpha7 nAChR expressed in Xenopus laevis oocytes assessed as increase in acetylcholine-induced channel current by measuring acetylcholine EC50 at 10 uM at -90 mV holding potential preincubated for 2 mins followed by co-application with acetylcholine for 10 secs by two-electrode voltage clamp method (Rvb = 256.4 +/- 20.1 uM)
Assay endpoint: pEC50
Notebook: values listed as pEC50 are -log10 of the concentration (mol/L).

query: What pEC50 value was documented for this compound, `Cc1cccc(Cl)c1-n1cnc2nc(SCc3ccccc3)sc2c1=O` ?
result: 3.73
